Structures can show the parent of a compound that is named as a salt.
measured.property: melting point

In [3]: df
Out[3]:
                                    compound           assay_value
 0  NC(=O)COc1ccc(-c2nc3ccccc3c(=O)[nH]2)cc1 [Example 41]     277.5 to 278.5 °C
 1  Cc1cc(-c2cc3nc(OC(C)C)cc(OC(C)C)c3c(=O)[nH]2)cc(C)c1O [Example 74]         206 to 208 °C
 2  COc1cc(OC)c2c(=O)[nH]c(-c3ccncc3)nc2c1 (as salt: hydrochloride) [Example 33]         294 to 295 °C
 3  Oc1ccc(-c2cc3ncccc3cn2)cc1 [Example 5, 4-(1,6-naphthyridin-7-yl)phenol]         219 to 221 °C
 4  COc1cc(OC)c2c(=O)[nH]c(-c3ccc(OCCO)c(Cl)c3)nc2c1 [Example 56]  287 to 288 °C (dec.)
 5  COc1cc2nc(-c3cc(C)c(O)c(C)c3)[nH]c(=O)c2c(OC)c1CN1CCOCC1 [Example 81]       237 to 239.1 °C
 6  COc1cc(OC)c2c(=O)[nH]c(-c3cc(C(C)(C)C)c(O)c(C(C)(C)C)c3)nc2c1 [Example 28]     229.7 to 230.5 °C
 7  CCN1CCN(Cc2ccc(-c3nc4cc(OC)cc(OC)c4c(=O)[nH]3)cc2)CC1 (as salt: hydrochloride) [Example 67]  278 to 280 °C (dec.)
 8  COc1cc(O)nc2cc(-c3cc(C)c(O)c(C)c3)[nH]c(=O)c12 (as salt: hydrochloride) [Example 12]              > 330 °C
 9  COc1cc(OC)c2c(=O)[nH]c(-c3ccc(CN4CCN(C)CC4)cc3)nc2c1 (as salt: hydrochloride) [Example 59]         275 to 277 °C
10  COc1cc(OC)cc(-c2nc3cc(OC)cc(OC)c3c(=O)[nH]2)c1 [Example 29]         270 to 272 °C
11  COc1cc(OC)c2c(=O)[nH]c(-c3ccc(O)c(Cl)c3)nc2c1 [Example 32]         279 to 281 °C
12  COc1cc(OC)c2c(=O)[nH]c(-c3cccnc3)nc2c1 (as salt: hydrochloride) [Example 27]         257 to 259 °C

----------
Structures can show the parent of a compound that is named as a salt.
Each record here notes measured melting point.
measured.property: melting point

                                    compound           assay_value
 0  COc1cc(OC)c2c(=O)nc(-c3cc(C)c(O)c(C)c3)n(C)c2c1     188.5 to 189.1 °C
 1  O=c1[nH]c(-c2ccc(N(CCO)CCO)cc2)nc2ccccc12         228 to 230 °C
 2  COc1cc(OC)c2c(=O)[nH]c(-c3cc(C)c(OCC(C)(C)O)c(C)c3)cc2c1         252 to 254 °C
 3  COc1cc(OC)c2c(=O)[nH]c(-c3ccc(CN4CCOCC4)cc3)nc2c1 (as salt: hydrochloride)  206 to 208 °C (dec.)
 4  COc1cc(OC)c2c(=O)[nH]c(-c3ccc(O)c(OC)c3)nc2c1         294 to 296 °C
 5  COc1cc2nc(-c3ccc(N(CCO)CCO)cc3)[nH]c(=O)c2cc1OC         268 to 270 °C
 6  COc1cc(OC)c2c(=O)[nH]c(-c3cc(C)c(OCCN4CCOCC4)c(C)c3)cc2n1     212.5 to 212.9 °C
 7  COc1cc(OC)c2c(=O)[nH]c(-c3ccccn3)nc2c1 (as salt: hydrochloride)         215 to 217 °C
 8  COc1cc2nc(-c3cc(C)c(OCCO)c(C)c3)[nH]c(=O)c2cc1OC              > 300 °C
 9  CC(=O)Nc1ccc2nc(-c3cc(C)c(O)c(C)c3)[nH]c(=O)c2c1       336.5 °C (dec.)
10  Cc1cc(C)c2c(=O)[nH]c(-c3cc(C)c(OCCO)c(C)c3)nc2c1     259.6 to 261.2 °C
11  COc1cc(OC)c2c(=O)[nH]c(-c3ccc(O)cc3)cc2c1         245 to 247 °C
12  COc1cc(OC)c2c(=O)[nH]c(-c3cc(C)c(O)c(C)c3)cc2n1 (as salt: HCl)              > 324 °C
13  COc1cc(O)c2c(=O)[nH]c(-c3cc(C)c(O)c(C)c3)nc2c1       291.3 to 293 °C
14  COc1cc(OC)c2c(=O)[nH]c(-c3ccc(N(CCO)CCO)cc3)nc2n1         277 to 279 °C
15  COCCOc1c(C)cc(-c2nc3cc(OC)cc(OC)c3c(=O)[nH]2)cc1C         201 to 202 °C
16  COc1cc2cc(-c3cc(C)c(O)c(C)c3)[nH]c(=O)c2c(OC)c1CN1CCOCC1         158 to 161 °C
17  COc1ccc(-c2nc3cc(OC)cc(OC)c3c(=O)[nH]2)cc1         276 to 277 °C
18  COc1cc(OC)c2c(=O)[nH]c(-c3cc(C)c(O)c(C)c3)nc2n1         297 to 299 °C
19  COc1cc(OC)c2c(=O)[nH]c(-c3ccc4c(c3)OCCO4)nc2c1     307.5 to 309.6 °C
20  COc1cc(OC)c2c(=O)[nH]c(-c3ccc(O)c(CCO)c3)nc2c1       249 to 250.3 °C
21  COc1cc(OC)c2c(=O)[nH]c(-c3ccc(OCC(=O)O)c(OC)c3)nc2c1         275 to 277 °C
22  COc1cc(OC)c2c(=O)[nH]c(-c3cc(C)c(OC)c(C)c3)cc2n1  262 to 263 °C (dec.)
